The entries below come with measured pIC50 values attached.
SUBJECT_OF_TEST: UniProt:O60760
PROTOCOL_SUMMARY: H-PGDS Inhibitor Enzyme Immunoassay (EIA)
Format: biochemical
CONDITION_DESCRIPTION: 25 ng H-PGDS, 40 μM PGH2, 1 mM GSH; PGD2 quantified by EIA
pIC50: −log10 of the molar value.
ATTRIBUTE_MEASURED: pIC50

molecule="Fc1cccc(-c2ncc(-c3cnc(-c4cccnc4)[nH]3)cn2)c1 [Example 11]" attribute_measured=pIC50 test_value=7.39
molecule="Cc1nc(-c2ccccc2)[nH]c1-c1cnc(-c2ccccc2)nc1 [Example 4]" attribute_measured=pIC50 test_value=7.09
molecule="c1ccc(CN2CCC(c3ncc(-c4cnc(-c5ccccc5)nc4)[nH]3)CC2)cc1 [Example 19]" attribute_measured=pIC50 test_value=8.22
molecule="c1ccc(-c2ccc(-c3cnc(-c4ccccc4)[nH]3)cn2)cc1 [Example 2]" attribute_measured=pIC50 test_value=7.01
molecule="c1ccc(-c2ncc(-c3nnc(-c4ccccc4)[nH]3)cn2)cc1 [Example 49]" attribute_measured=pIC50 test_value=7.08
molecule="c1ccc(-c2ncc(-c3cnc(-c4cccnc4)[nH]3)cn2)cc1 [Example 10]" attribute_measured=pIC50 test_value=7.68
molecule="c1ccc(Cc2ncc(-c3cnc(-c4ccccc4)nc3)[nH]2)cc1 [Example 14]" attribute_measured=pIC50 test_value=7.23
molecule="CN1CCN(C(=O)c2cc(-c3cnc(Oc4ccccc4)nc3)[nH]n2)CC1 [Example 57]" attribute_measured=pIC50 test_value=6.38
molecule="Fc1cccc(-c2ncc(-c3cnc(-c4ccccc4)nc3)[nH]2)c1 [Example 8]" attribute_measured=pIC50 test_value=8.40
molecule="c1ccc(-c2ncc(-c3cnc(-c4ccccc4)[nH]3)cn2)cc1 [Example 1]" attribute_measured=pIC50 test_value=7.92
molecule="Fc1cccc(-c2ncc(-c3cnc(-c4ccccc4)[nH]3)cn2)c1 [Example 6]" attribute_measured=pIC50 test_value=7.33
molecule="c1ccc(-c2ncc(-c3csc(-c4cccnc4)n3)cn2)cc1 [Example 59]" attribute_measured=pIC50 test_value=6.82
molecule="Cn1c(-c2cnc(-c3ccccc3)nc2)cnc1-c1ccccc1 [Example 3]" attribute_measured=pIC50 test_value=6.60

* * *

The entries below come with measured melting point values attached.
ATTRIBUTE_MEASURED: melting point (°C)

compound="Fc1cccc(-c2ncc(-c3cnc(-c4ccccc4)nc3)[nH]2)c1 [Example 8]" test_value=221
compound="c1ccc(Cn2cnc(-c3cnc(-c4ccccc4)nc3)c2)cc1 [Example 34]" test_value=195
compound="c1ccc(Oc2ncc(-c3cnc(-c4cccnc4)[nH]3)cn2)cc1 [Example 40]" test_value=236
compound="Cn1cncc1-c1cnc(-c2ccccc2)nc1 [Example 32]" test_value=144
compound="COc1ccc(-c2ncc(-c3cnc(-c4ccccc4)[nH]3)cn2)cc1OC [Example 7]" test_value=231
compound="c1ccc(-c2ncc(-c3csc(-c4cccnc4)n3)cn2)cc1 [Example 59]" test_value=319
compound="Fc1cccc(-c2ncc(-c3cnc(-c4ccccc4)[nH]3)cn2)c1 [Example 6]" test_value=240
compound="c1ccc(-c2ncc(-c3cnc(-c4cccnc4)[nH]3)cn2)cc1 [Example 10]" test_value=308
compound="c1ccc(Cc2ncc(-c3cnc(Oc4ccccc4)nc3)[nH]2)cc1 [Example 39]" test_value=60
compound="c1ccc(Cn2cncc2-c2cnc(-c3ccccc3)nc2)cc1 [Example 33]" test_value=140
compound="c1ccc(CN2CCCC(c3ncc(-c4cnc(-c5ccccc5)nc4)[nH]3)C2)cc1 (racemic) [Example 23]" test_value=179
compound="Cn1c(-c2cnc(-c3ccccc3)nc2)cnc1-c1ccccc1 [Example 3]" test_value=211
compound="c1ccc(-c2ncc(-c3ncc(-c4ccccc4)[nH]3)cn2)cc1 [Example 44]" test_value=238

* * *

The entries below come with measured IC50 values attached.
SUBJECT_OF_TEST: H-PGDS (Homo sapiens (Human))
Sequence (O60760 whole entry): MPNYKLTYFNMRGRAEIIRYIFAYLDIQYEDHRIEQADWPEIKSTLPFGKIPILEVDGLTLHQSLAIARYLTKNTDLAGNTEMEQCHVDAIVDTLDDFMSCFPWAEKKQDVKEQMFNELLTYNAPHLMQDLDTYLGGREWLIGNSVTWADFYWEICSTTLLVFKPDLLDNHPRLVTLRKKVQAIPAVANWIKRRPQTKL
PROTOCOL_SUMMARY: H-PGDS Fluorescence Polarization Binding Assay (FPBA)
CONDITION_DESCRIPTION: H-PGDS-MBP fusion enzyme, fluorescent probe, reduced glutathione 5 mM, 60-90 minutes at room temperature, 96-well format
Excerpt: H-PGDS Fluorescence Polarization Binding Assay This assay essentially is available from Cayman Chemical Company as Catalog item #600007. The test data reported for the aforementioned Examples (H-PGDS FPBA IC50) were generated using a 96-well, instead of the 384-well, format. […] The measurements were taken in the fluorescent polarization mode with the z-height set to the middle of the well and the G-factor set to 1.13 on a Tecan Safire 2 reader.
ATTRIBUTE_MEASURED: IC50

compound=c1ccc(Cc2nc(-c3cnc(-c4ccccc4)nc3)cs2)cc1 subject_of_test="H-PGDS (Homo sapiens (Human))" test_value="> 20 µM"
compound="Cc1ccc(-c2cnc(-c3cccnc3)n2Cc2ccccc2)cn1 [Example 66 (Step A)]" subject_of_test="H-PGDS (Homo sapiens (Human))" test_value="> 10 µM"
compound="CC(C)(C)OC(=O)N1CCCC(c2ncc(-c3cnc(-c4ccccc4)nc3)[nH]2)C1 (racemic)" subject_of_test="H-PGDS (Homo sapiens (Human))" test_value="0.2 µM"
compound=O=C(NCCN1CCOCC1)c1csc(-c2cnc(-c3ccccc3)nc2)n1 subject_of_test="H-PGDS (Homo sapiens (Human))" test_value="2.5 µM"
compound="c1ccc(Cn2c(-c3ccccc3)cnc2-c2cnc(-c3ccccc3)nc2)cc1 [Example 44 (Step B)]" subject_of_test="H-PGDS (Homo sapiens (Human))" test_value="15 µM"
compound=c1ccc(Cc2ncc(-c3cnc(-c4ccccc4)nc3)[nH]2)cc1 subject_of_test="H-PGDS (Homo sapiens (Human))" test_value="0.625 µM"
compound=c1ccc(-c2ncc(-c3cnc(-c4ccncc4)[nH]3)cn2)cc1 subject_of_test="H-PGDS (Homo sapiens (Human))" test_value="0.125 µM"
compound=c1ccc(Cn2cncc2-c2cnc(-c3ccccc3)nc2)cc1 subject_of_test="H-PGDS (Homo sapiens (Human))" test_value="2 µM"
compound=c1ccc(CN2CCC(c3ncc(-c4cnc(-c5ccccc5)nc4)[nH]3)CC2)cc1 subject_of_test="H-PGDS (Homo sapiens (Human))" test_value="0.08 µM"
compound="Cn1nnc(-c2cnc(-c3ccccc3)nc2)n1 [Example 73A]" subject_of_test="H-PGDS (Homo sapiens (Human))" test_value="10 µM"
compound=c1ccc(-c2ncc(-c3csc(-c4ccccc4)n3)cn2)cc1 subject_of_test="H-PGDS (Homo sapiens (Human))" test_value="> 20 µM"
compound="CNC(=O)N1CCCC(c2ncc(-c3cnc(-c4ccccc4)nc3)[nH]2)C1 (racemic) [Example 25B]" subject_of_test="H-PGDS (Homo sapiens (Human))" test_value="0.3 µM"
compound="Cn1nnnc1-c1cnc(-c2ccccc2)nc1 [Example 73B]" subject_of_test="H-PGDS (Homo sapiens (Human))" test_value="20 µM"
compound="c1ccc(-c2ncc(-c3cn(C(c4ccccc4)(c4ccccc4)c4ccccc4)cn3)cn2)cc1 [Example 34 (Step A)]" subject_of_test="H-PGDS (Homo sapiens (Human))" test_value="> 20 µM"
compound=Cn1c(-c2cnc(-c3ccccc3)nc2)cnc1-c1ccccc1 subject_of_test="H-PGDS (Homo sapiens (Human))" test_value="0.625 µM"
compound=c1ccc(-c2ncc(-c3ncc(-c4ccccc4)o3)cn2)cc1 subject_of_test="H-PGDS (Homo sapiens (Human))" test_value="> 20 µM"
compound=CCOC(=O)c1cc(-c2cnc(Oc3ccccc3)nc2)[nH]n1 subject_of_test="H-PGDS (Homo sapiens (Human))" test_value="1.3 µM"
compound=CN1CCN(C(=O)c2cc(-c3cnc(Oc4ccccc4)nc3)[nH]n2)CC1 subject_of_test="H-PGDS (Homo sapiens (Human))" test_value="0.65 µM"
compound=CC(C)(C)OC(=O)c1csc(-c2cnc(-c3ccccc3)nc2)n1 subject_of_test="H-PGDS (Homo sapiens (Human))" test_value="5.9 µM"
compound=Fc1cccc(-c2ncc(-c3cnc(-c4cccnc4)[nH]3)cn2)c1 subject_of_test="H-PGDS (Homo sapiens (Human))" test_value="0.156 µM"
compound=c1ccc(-c2ncc(-c3csc(-c4cccnc4)n3)cn2)cc1 subject_of_test="H-PGDS (Homo sapiens (Human))" test_value="1 µM"
compound=C(=C\c1ncc(-c2cnc(-c3ccccc3)nc2)[nH]1)/c1cccnc1 subject_of_test="H-PGDS (Homo sapiens (Human))" test_value="0.15 µM"
compound="c1ccc(-c2ncc(-c3cnc(C4CCNC4)[nH]3)cn2)cc1 (racemic)" subject_of_test="H-PGDS (Homo sapiens (Human))" test_value="2 µM"
compound=COCCCNC(=O)c1csc(-c2cnc(-c3ccccc3)nc2)n1 subject_of_test="H-PGDS (Homo sapiens (Human))" test_value="3.4 µM"
compound=c1ccc(-c2ncc(-c3cnc(CCc4cccnc4)[nH]3)cn2)cc1 subject_of_test="H-PGDS (Homo sapiens (Human))" test_value="0.3 µM"
compound=Cc1nc(-c2ccccc2)sc1-c1cnc(-c2cccnc2)n1Cc1ccccc1 subject_of_test="H-PGDS (Homo sapiens (Human))" test_value="> 20 µM"
compound=c1cncc(-c2ncc(-c3cnc(-c4cccnc4)[nH]3)cn2)c1 subject_of_test="H-PGDS (Homo sapiens (Human))" test_value="1.3 µM"
compound=c1ccc(-c2cc(-c3cnc(-c4ccccc4)nc3)[nH]n2)cc1 subject_of_test="H-PGDS (Homo sapiens (Human))" test_value="1.5 µM"
compound=c1ccc(-c2ncc(-c3nnc(-c4ccccc4)[nH]3)cn2)cc1 subject_of_test="H-PGDS (Homo sapiens (Human))" test_value="1 µM"
compound=c1ccc(-c2ncc(-c3ncco3)cn2)cc1 subject_of_test="H-PGDS (Homo sapiens (Human))" test_value="7.8 µM"

Hello, the source for this data is patent US9126973B2, in case you need it.
